Field pIC50: reported value for Coagulation factor XI (Homo sapiens); entries drawn from several documents.
Entry type: numeric. Quantity: pIC50, the -log10 of concentration in molar units.

O=C1Nc2ccc(Cl)c(F)c2[C@@]2(CCCN(C(=O)c3nnc(C4(c5ccc(F)cc5)CCOCC4)[nH]3)C2)O1 :: 5.60
COC(=O)NC12CCC(NC(=O)C(Cc3ccccc3)c3ccc(-c4cc(Cl)ccc4-n4cnnn4)c[n+]3[O-])(CC1)CC2 (single isomer, unassigned) :: 6.00

Would you kindly look at the next entry?
GET /values?readout=pIC50&item= O=C(O)c1ccc(NC(=O)C2(F)CC(F)c3cc(-c4cc(Cl)ccc4-n4cnnn4)c[n+]([O-])c32)cc1 (single isomer, unassigned) 5.35

---

Field IC50: reported value for Coagulation factor XI (Homo sapiens); entries drawn from several documents.
Hi! Could you send only the number? It should be in nM, unit omitted.

Past entries and their recorded results:
Nc1ccc(-c2c[nH]c(C(CC3CC3)c3ccc(-c4cc(Cl)ccc4-n4cnnn4)c[n+]3[O-])n2)cn1 (single isomer, unassigned) :: 1.08
COc1cn(C(C[C@H](C)OC)C(=O)Nc2ccc(C(N)=O)c(F)c2)c(=O)cc1-c1cc(Cl)ccc1OCC(F)(F)F (mixture of isomers) :: 19

Would you kindly look at the next entry?
Record CO[C@@H](C)C[C@@H](C(=O)Nc1ccc(C(N)=O)cc1)n1cc2c(cc1=O)-c1cc(Cl)ccc1C[C@@H](C)O[C@H]2C (single isomer, unassigned) : what is its IC50 with Coagulation factor XI (Homo sapiens)? 1.4

---

Field IC50: reported value for Coagulation factor XI (Homo sapiens, UniProt P03951); entries drawn from several documents.
Hi! Could you send only the number? It should be in nM, unit omitted.

Past entries and their recorded results:
COC(=O)c1ccc(NC(=O)Cn2cc(C(=N)N)c3cccc(/C=C/C(=O)NC4Cc5ccccc5C4)c32)cc1 :: 3230
O=C(O)c1cccc(-c2c[nH]c(C(CC3CC3)c3ccc(-c4cc(Cl)ccc4-n4cnnn4)c[n+]3[O-])n2)c1 (single isomer, unassigned) :: 0.9
Cc1ncc(-c2c(C(F)F)ccc(Cl)c2F)nc1C(=O)Nc1cnn(Cc2nnc(N3C[C@H]4C[C@H]4C3=O)c(C)c2C)c1 :: 127
COc1cn(C(CCOC(C)(C)C)C(=O)Nc2ccc(C(=O)O)cc2)c(=O)cc1-c1cc(Cl)ccc1OCC(F)(F)F (racemic) :: 0.71

Would you kindly look at the next entry?
Record "Nc1c(C(=O)N2CCC[C@@]3(C2)OC(=O)Nc2ccc(Cl)c(F)c23)cnn1Cc1cccc(C(F)(F)F)c1" : what is its IC50 with Coagulation factor XI (Homo sapiens, UniProt P03951)? 726

---

Field pIC50: reported value for Coagulation factor XI (Homo sapiens, UniProt P03951); entries drawn from several documents.
Entry type: numeric. Quantity: pIC50, the -log10 of concentration in molar units.

Past entries and their recorded results:
NC(=O)c1ccc(NC(=O)C(C[C@@H]2CCCCO2)n2cc3c(cc2=O)-c2cc(Cl)ccc2CC(C(F)(F)F)OC3)cc1F (mixture of isomers) :: 7.85
Cc1ncc(-c2c(C(F)F)ccc(Cl)c2F)nc1C(=O)Nc1cnn(Cc2cnc(N3C[C@H]4C[C@H]4C3=O)c(C)n2)n1 :: 5.86
N=C(N)c1cn(-c2cc(Br)ccc2C(=O)NCc2ccccc2)c2ccccc12 :: 3.55
COCCC(C(=O)Nc1ccc(C(=O)O)s1)n1cc2c(cc1=O)-c1cc(Cl)ccc1CC1(CC1)NC2=O (stereo not shown) :: 8.40
Cc1ccc(-c2cc(N)n(CC(=O)N3CC[C@@]4(C3)OC(=O)Nc3ccc(Cl)c(F)c34)n2)n1C :: 5.56

Record "Nc1cc(-c2cccnn2)nn1CC(=O)N1CC[C@@]2(C1)OC(=O)Nc1ccc(Cl)c(F)c12" : what is its pIC50 with Coagulation factor XI (Homo sapiens, UniProt P03951)? 6.44

What would you report for "Cc1cc([C@@H](C)n2cc(NC(=O)c3nc(-c4c(OC(F)F)ccc(Cl)c4F)cnc3CO)cn2)cnc1N1C[C@H]2C[C@H]2C1=O" ? 7.60

What would you report for O=C(O)c1ccc(NC(=O)C(C[C@H]2CC[C@H](O)CC2)c2ccc(-c3c(C(F)F)ccc(Cl)c3F)c[n+]2[O-])cc1 (single isomer, unassigned) ? 7.59

What would you report for "COC(=O)c1ccc(Br)cc1-n1cc(C(=N)N)c2ccccc21" ? 5.87

What would you report for "Nc1c(C(=O)N2CCC[C@@]3(C2)OC(=O)Nc2ccc(Cl)c(F)c23)cnn1C1(C(F)(F)F)CC1" ? 6.16
